Ref: ChEMBL document CHEMBL5050844

protocol.notes: Induction of anti-CD3 antibodies-stimulated human CD8+ T cell activation at 10 uM assessed fold increase in cell proliferation measured by flow cytometry analysis; further: reference of the scale not given here
Format: functional, T cell line
parameter.measured: fold change (FC)

Some compounds with known fold change (FC) results, for comparison:
Cn1cnnc1C(F)(F)C(C)(F)c1cccc(N2Cc3c(cc(CN4CC[C@@H](F)C4)cc3C(F)(F)F)C2=O)c1 (single isomer, unassigned) : >4
C[C@H](Cc1nncn1C)c1cccc(N2Cc3c(cc(CN4CC[C@H](F)C4)cc3C(F)(F)F)C2=O)c1 : >4
COC1CN(Cc2cc3c(c(C(F)(F)F)c2)CN(c2cccc([C@@](C)(F)C(F)(F)c4nncn4C)c2)C3=O)C1 : >4
C[C@H](Cc1nncn1C)c1cccc(NC(=O)c2n[nH]c3c2CCC3)c1 : 2.01
C[C@H](Cc1nncn1C)c1cccc(N2Cc3c(cc(CN4CC(C)(O)C4)cc3C(F)(F)F)C2=O)c1 : >4
Cn1cnnc1CC1(c2cccc(N3Cc4c(cc(CN5CC(F)C5)cc4C(F)(F)F)C3=O)c2)COC1 : >4

Consider the compound shown here: `Cc1cc(C(=O)Nc2cccc(C3(Cc4nncn4C)COC3)c2)nc(C2CC2)n1` What is its recorded fold change (FC)? >4

Fill in the blank: the reported fold change (FC) of `C[C@H](Cc1nncn1C)c1cccc(NC(=O)c2nc(C(F)(F)F)c[nH]2)c1` is ____. >4

fold change (FC) for `C[C@H](Cc1nncn1C)c1cccc(NC(=O)c2cccc(CCO)n2)c1` ? <=2
